Target: CB1 receptor (Rattus norvegicus)
Construct: from tissue; host or cells: rat whole brain, P2 membranes
Sequence (P20272 whole entry): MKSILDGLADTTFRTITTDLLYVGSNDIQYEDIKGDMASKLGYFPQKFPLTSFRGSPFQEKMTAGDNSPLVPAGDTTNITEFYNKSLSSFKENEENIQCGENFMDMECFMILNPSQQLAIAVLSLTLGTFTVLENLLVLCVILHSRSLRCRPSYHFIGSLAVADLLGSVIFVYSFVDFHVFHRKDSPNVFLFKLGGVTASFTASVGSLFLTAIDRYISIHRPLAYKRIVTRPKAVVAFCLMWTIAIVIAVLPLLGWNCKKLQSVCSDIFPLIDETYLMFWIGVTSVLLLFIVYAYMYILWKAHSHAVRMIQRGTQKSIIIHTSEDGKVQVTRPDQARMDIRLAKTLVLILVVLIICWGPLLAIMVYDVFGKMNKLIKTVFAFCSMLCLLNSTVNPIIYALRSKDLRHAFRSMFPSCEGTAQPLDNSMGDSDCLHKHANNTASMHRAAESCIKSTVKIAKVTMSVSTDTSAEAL
Measurement notes: CB1 assay: displacement of [3H]CP-55,940 from rat brain membrane preparation
Assay type: binding
Can you tell me Ki for the items I'm about to list?

Task: Entry `CCCn1c(C)c(C(=O)c2cccc3cc(OC)ccc23)c2ccccc21` : reported Ki = ?
Output: > 10 µM

Task: If you can, please state the reported Ki value of `CCCn1c(C)c(C(=O)c2c(OC)ccc3ccccc23)c2ccccc21` .
Output: > 10 µM

Task: Which Ki is listed for `CCCC(C)(C)c1cc(OC)c2c(c1)OC(C)(C)[C@@H]1CC=C(C)C[C@@H]21` ?
Output: > 10 µM
